Data credit: ChEMBL document CHEMBL1135264

# assayed_target: Prostaglandin G/H synthase 1 (Ovis aries) (UniProt P05979)
# Sequence (P05979 whole entry): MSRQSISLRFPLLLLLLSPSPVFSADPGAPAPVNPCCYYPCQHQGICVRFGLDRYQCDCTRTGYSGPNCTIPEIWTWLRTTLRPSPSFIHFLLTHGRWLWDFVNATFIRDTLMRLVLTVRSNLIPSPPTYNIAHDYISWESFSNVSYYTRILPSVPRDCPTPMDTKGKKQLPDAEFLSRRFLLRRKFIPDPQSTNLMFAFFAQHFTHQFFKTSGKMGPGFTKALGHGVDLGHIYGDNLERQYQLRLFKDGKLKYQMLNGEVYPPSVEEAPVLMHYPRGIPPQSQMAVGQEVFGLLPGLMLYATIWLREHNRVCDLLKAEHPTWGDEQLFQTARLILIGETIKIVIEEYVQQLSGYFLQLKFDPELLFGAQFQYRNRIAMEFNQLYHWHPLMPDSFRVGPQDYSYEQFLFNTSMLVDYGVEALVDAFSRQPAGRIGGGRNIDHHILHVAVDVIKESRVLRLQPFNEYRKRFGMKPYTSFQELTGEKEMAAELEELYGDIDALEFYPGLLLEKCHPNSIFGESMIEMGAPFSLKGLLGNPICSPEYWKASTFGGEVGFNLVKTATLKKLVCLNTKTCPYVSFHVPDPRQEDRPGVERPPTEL
# procedure_details: Selective index (SI) which is the ratio of IC50 of Prostaglandin G/H synthase 1 / […]

| molecule | assayed_target | inequality_symbol | Ratio |
| --- | --- | --- | --- |
| Cc1cc(C)c(C)c(N2C(=O)c3ccccc3C2=O)c1C | Prostaglandin G/H synthase 1 (Ovis aries) (UniProt P05979) | = | 4.16 |
| O=C1CCC(N2C(=O)c3ccccc3C2=O)C(=O)N1 (stereo not drawn) | Prostaglandin G/H synthase 1 (Ovis aries) (UniProt P05979) | = | 1.23 |
| C[C@@]1(N2C(=O)c3ccc([N+](=O)[O-])cc3C2=O)CCC(=O)NC1=O | Prostaglandin G/H synthase 1 (Ovis aries) (UniProt P05979) | = | 2.63 |
| O=C1c2ccccc2C(=O)N1c1cnc(O)nc1O | Prostaglandin G/H synthase 1 (Ovis aries) (UniProt P05979) | = | 7.69 |
| COc1cc(OC)nc(N2C(=O)Cc3ccccc3C2=O)n1 | Prostaglandin G/H synthase 1 (Ovis aries) (UniProt P05979) | = | 0.38 |
| O=C1NCCCC1N1C(=O)c2ccccc2C1=O (stereo not drawn) | Prostaglandin G/H synthase 1 (Ovis aries) (UniProt P05979) | = | 1.43 |
| C[C@@]1(N2C(=O)c3ccccc3C2=O)CCC(=O)NC1=O | Prostaglandin G/H synthase 1 (Ovis aries) (UniProt P05979) | = | 2.56 |
| O=C1CCN(N2C(=O)c3ccccc3C2=O)C(=O)N1 | Prostaglandin G/H synthase 1 (Ovis aries) (UniProt P05979) | = | 1.45 |
| Cc1cc(C)cc(N2C(=O)Cc3ccccc3C2=O)c1 | Prostaglandin G/H synthase 1 (Ovis aries) (UniProt P05979) | = | 0.39 |
| Cc1cc(C)nc(N2C(=O)Cc3ccccc3C2=O)c1 | Prostaglandin G/H synthase 1 (Ovis aries) (UniProt P05979) | = | 0.51 |
| C[C@@]1(N2C(=O)c3cccc([N+](=O)[O-])c3C2=O)CCC(=O)NC1=O | Prostaglandin G/H synthase 1 (Ovis aries) (UniProt P05979) | = | 0.23 |
| C[C@@]1(N2C(=O)c3ccc(N)cc3C2=O)CCC(=O)NC1=O | Prostaglandin G/H synthase 1 (Ovis aries) (UniProt P05979) | < | 0.07 |
| O=C1c2ccccc2C(=O)N1CCn1ccc(=O)[nH]c1=O | Prostaglandin G/H synthase 1 (Ovis aries) (UniProt P05979) | = | 0.44 |
| COc1cc(C)nc(N2C(=O)Cc3ccccc3C2=O)n1 | Prostaglandin G/H synthase 1 (Ovis aries) (UniProt P05979) | = | 0.45 |
| C[C@@]1(N2C(=O)c3cccc(N)c3C2=O)CCC(=O)NC1=O | Prostaglandin G/H synthase 1 (Ovis aries) (UniProt P05979) | = | 11.1 |
| Cc1cc(C)c(C)c(N2C(=O)c3ccccc3C2=O)c1 | Prostaglandin G/H synthase 1 (Ovis aries) (UniProt P05979) | = | 4.05 |
| Cc1cc(C)nc(N2C(=O)Cc3ccccc3C2=O)n1 | Prostaglandin G/H synthase 1 (Ovis aries) (UniProt P05979) | = | 0.45 |
| Cc1cc(C)cc(N2C(=O)c3ccccc3C2=O)c1 | Prostaglandin G/H synthase 1 (Ovis aries) (UniProt P05979) | = | 2.14 |
